# measurement-notes: chemical recovery from spiked human plasma; higher = better extraction
# cond: pooled human plasma; extraction method: solvent precipitation (ACN + hexane)
Respond with condition met for chemical recovery values of 40% and above, condition not met for values below.

{"molecule": "CCCCCCCCCCCCCCOS(=O)(=O)O [Tetradecylsulfate]", "group-label": "condition not met"}
{"molecule": "COc1cc([N+](=O)[O-])ccc1O", "group-label": "condition met"}
{"molecule": "c1ccc2c(c1)Nc1ccccc1S2", "group-label": "condition met"}
{"molecule": "c1ccc2sc(N3CCOCC3)nc2c1", "group-label": "condition met"}
{"molecule": "NC(=O)C(F)(F)C(F)(F)F [Pentafluoropropionamide]", "group-label": "condition not met"}

----------
# measurement-notes: chemical recovery from spiked human plasma; higher = better extraction
# cond: pooled human plasma; extraction method: SPE only (HLB 96-well), PES comparison experiment
measure: chemical recovery (%)

{"molecule": "CCOC(=O)C1=C(C)NC(C)=C(C(=O)OC)C1c1cccc([N+](=O)[O-])c1 (stereo not drawn)", "reported-result": 51.5}
{"molecule": "C[C@]12CC(=O)[C@H]3[C@@H](CCC4=CC(=O)CC[C@@]43C)[C@@H]1CC[C@@H]2O", "reported-result": 50.5}
{"molecule": "C#C[C@]1(O)CC[C@H]2[C@@H]3CCC4=CC(=O)CC[C@@H]4[C@H]3CC[C@@]21C", "reported-result": 54.2}
{"molecule": "CC(C)c1ccc(NC(=O)N(C)C)cc1", "reported-result": 53.4}
{"molecule": "COC(=O)N(OC)c1ccccc1COc1ccn(-c2ccc(Cl)cc2)n1", "reported-result": 36.9}
{"molecule": "C[C@@H]1C[C@H]2[C@@H]3CCC4=CC(=O)C=C[C@]4(C)[C@@]3(Cl)[C@@H](O)C[C@]2(C)[C@@]1(OC(=O)c1ccco1)C(=O)CCl [Mometasone fuorate]", "reported-result": 32.8}
{"molecule": "CCCC1COC(Cn2cncn2)(c2ccc(Cl)cc2Cl)O1 (stereo not drawn)", "reported-result": 43.1}
{"molecule": "CN1CCN2c3ncccc3Cc3ccccc3C2C1 (stereo not drawn)", "reported-result": 29.9}

----------
# measurement-notes: chemical recovery into PDMS from spiked human plasma; higher = better extraction
# cond: pooled human plasma; extraction method: PES with PDMS; equilibration time (d): 1
Classes based on chemical recovery into PDMS: lowest: < 6%; middle: ≥ 6% and < 40%; highest: ≥ 40%

{"molecule": "CC(C)(C)C(=O)C(Oc1ccc(Cl)cc1)n1ccnc1 (stereo not drawn)", "group-label": "highest"}
{"molecule": "CSc1nnc(C(C)(C)C)c(=O)n1N", "group-label": "middle"}
{"molecule": "Cc1cccc(C)c1N(Cn1cccn1)C(=O)C[S+](C)[O-] (stereo not drawn)", "group-label": "lowest"}
{"molecule": "Cc1nc2n(c(=O)c1CCN1CCC(c3noc4cc(F)ccc34)CC1)CCCC2", "group-label": "lowest"}
{"molecule": "C[C@]12CC[C@H]3[C@@H](CCC4=CC(=O)CC[C@@]43C)[C@@H]1CC[C@@H]2O", "group-label": "middle"}
{"molecule": "O=Cc1ccccc1Nc1ccccc1Cl", "group-label": "middle"}
{"molecule": "CC(=O)[C@@]1(O)CC[C@H]2[C@@H]3C[C@H](C)C4=CC(=O)C=C[C@]4(C)[C@@]3(F)[C@@H](O)C[C@@]21C", "group-label": "lowest"}
{"molecule": "CC[C@H](C)[C@H]1O[C@]2(C=C[C@@H]1C)C[C@@H]1C[C@@H](C/C=C(\\C)[C@@H](O[C@H]3C[C@H](OC)[C@@H](O[C@H]4C[C@H](OC)[C@@H](NC)[C@H](C)O4)[C@H](C)O3)[C@@H](C)/C=C/C=C3\\CO[C@@H]4[C@H](O)C(C)=C[C@@H](C(=O)O1)[C@]34O)O2", "group-label": "lowest"}
{"molecule": "CC[C@H]1CCC[C@H](O[C@H]2CC[C@H](N(C)C)[C@@H](C)O2)[C@@H](C)C(=O)C2=C[C@@H]3[C@@H](C=C[C@@H]4C[C@@H](O[C@@H]5O[C@@H](C)[C@H](OC)[C@@H](OC)[C@H]5OC)C[C@@H]34)[C@@H]2CC(=O)O1 [Spinosyn A]", "group-label": "lowest"}
{"molecule": "CN1C(=O)CC[C@H]1c1cccnc1", "group-label": "middle"}
{"molecule": "NC(=O)N1c2ccccc2C=Cc2cc(O)ccc21 [2-Hydroxycarbamazepine]", "group-label": "lowest"}
{"molecule": "Cc1cc(=O)oc2cc(N)ccc12", "group-label": "middle"}
{"molecule": "Cc1ccc2[nH]nnc2c1", "group-label": "lowest"}
{"molecule": "CC(=O)OCC(=O)[C@@]12OC3(CCCC3)O[C@@H]1C[C@H]1[C@@H]3CCC4=CC(=O)C=C[C@]4(C)[C@@]3(F)[C@@H](O)C[C@@]12C [Amcinonide]", "group-label": "middle"}
{"molecule": "CCNC(=O)[C@@H](C)OC(=O)Nc1ccccc1 [Carbetamide]", "group-label": "middle"}
{"molecule": "CCC(CC)Nc1c([N+](=O)[O-])cc(C)c(C)c1[N+](=O)[O-]", "group-label": "highest"}
{"molecule": "C[C@H]1C[C@H]2[C@@H]3CCC4=CC(=O)C=C[C@]4(C)[C@@]3(F)[C@@H](O)C[C@]2(C)[C@@]1(O)C(=O)CCl", "group-label": "lowest"}
{"molecule": "COc1ccc(C(=O)c2ccccc2)c(O)c1", "group-label": "middle"}
{"molecule": "CC(C)(C)NC(=O)[C@H]1CC[C@H]2[C@@H]3CC[C@H]4NC(=O)C=C[C@]4(C)[C@H]3CC[C@]12C [Finasteride]", "group-label": "middle"}
{"molecule": "O=P1(N(CCCl)CCCl)NCCCO1 (stereo not drawn) [Cyclophosphamide]", "group-label": "lowest"}
{"molecule": "CO/N=C(/C1=NOCCO1)c1ccccc1Oc1ncnc(Oc2ccccc2Cl)c1F", "group-label": "highest"}
{"molecule": "CN(C)c1ccc(C(=O)c2ccc(N(C)C)cc2)cc1", "group-label": "middle"}
{"molecule": "CC1C(C)(C)C2=C(C(=O)CCC2)C1(C)C (stereo not drawn)", "group-label": "middle"}
{"molecule": "O=S(=O)(c1ccccc1)c1ccccc1", "group-label": "highest"}
{"molecule": "CN1CCN(C2=Nc3cc(Cl)ccc3Nc3ccccc32)CC1", "group-label": "lowest"}
{"molecule": "O=[N+]([O-])c1cc[n+]([O-])c2ccccc12 [4-Nitroquinoline-1-oxide]", "group-label": "middle"}
{"molecule": "CS(=O)(=O)c1ccccc1", "group-label": "highest"}
{"molecule": "O=P(Oc1ccccc1)(Oc1ccccc1)Oc1ccccc1 [Triphenylphosphate]", "group-label": "highest"}
{"molecule": "Cc1ccc(S(N)(=O)=O)cc1 [p-Toluenesulfonamide]", "group-label": "lowest"}
